From: patent US9365522B2

# Target Desc: ligand binding domain of human ROR gamma (Homo sapiens, UniProt P51449)
# Construct: NM_001001523; expressed in transfected cells; host or cells: HEK293T
# Sequence (P51449 268-518): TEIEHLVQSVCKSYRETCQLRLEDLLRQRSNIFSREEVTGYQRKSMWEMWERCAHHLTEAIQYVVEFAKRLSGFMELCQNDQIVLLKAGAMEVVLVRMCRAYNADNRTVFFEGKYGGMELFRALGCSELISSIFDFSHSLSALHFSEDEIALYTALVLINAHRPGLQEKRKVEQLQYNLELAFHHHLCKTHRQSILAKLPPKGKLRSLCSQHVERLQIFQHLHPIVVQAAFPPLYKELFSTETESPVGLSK
# Test Details: ROR gamma reporter gene assay (GAL4-RORγ LBD luciferase, Dual-Glo)
# Type: cell-based
# Test Settings: HEK293T cells transfected with pM-ROR gamma, 8 concentrations 3.5 nM to 10.5 μM, 24 h incubation; read-out: result (pIC50, inhibition of RORγ transcriptional activity) (converted)
The following compounds are listed with their measured IC50 values.
Measurement Name: IC50

>>> value_measured("O=C(CN(Cc1cc(F)cc(F)c1)C(=O)c1cnn([C@H]2CC[C@H](C(=O)O)CC2)c1C(F)(F)F)c1c(Cl)nsc1Cl")
"> 1.05e+06 pM"
>>> value_measured("O=C(CN(C[C@H]1CCOC1)C(=O)c1cnn([C@H]2CC[C@H](C(=O)O)CC2)c1C(F)(F)F)c1c(Cl)cncc1Cl")
"> 1e+07 pM"
>>> value_measured("CC1(C)CC(CN(CC(=O)c2c(Cl)cc(Cl)cc2Cl)C(=O)c2cnn([C@H]3CC[C@](C)(C(=O)O)CC3)c2C(F)(F)F)C1")
"< 3470 pM"
